# EXPERIMENTAL_TARGET: HLA-B*48:01
# TEST_DETAILS: IEDB peptide-MHC binding, purified MHC/competitive/fluorescence; filed as Kd, often an IC50 or EC50 that approximates it; bounds were set here for any values at or beyond the usual limits of such assays
# TEST_PARAMETERS: source organism: dengue virus type 2
QUANTITY_KIND: pKd
API: returns pKd as number; meaning -log10 of concentration in mol/L.

Query: Give pKd for the following sequence: "RQWFIDVPL"
Reply: 7.16

###

# EXPERIMENTAL_TARGET: HLA-A*30:02
# TEST_DETAILS: IEDB peptide-MHC binding, purified MHC/competitive/radioactivity; filed as Kd, often an IC50 or EC50 that approximates it; bounds were set here for any values at or beyond the usual limits of such assays
# TEST_PARAMETERS: source organism: Mammarenavirus guanaritoense
pKd: −log10 of the molar value.
QUANTITY_KIND: pKd

Query: Give pKd for the following sequence: "FYSEESPTEY"
Reply: ≤ 4.57

###

# EXPERIMENTAL_TARGET: HLA-A*02:03
# TEST_DETAILS: IEDB peptide-MHC binding, purified MHC/competitive/radioactivity; filed as Kd, often an IC50 or EC50 that approximates it; bounds were set here for any values at or beyond the usual limits of such assays
# TEST_PARAMETERS: source organism: Dengue virus 2 Jamaica/1409/1983
QUANTITY_KIND: Kd (nM)
The reply should be a number in nM, with the unit left off.

Query: Give Kd for the following sequence: "TMWHVTRGAV"
Reply: 382

Query: Give Kd for the following sequence: "LMMATIGIAL"
Reply: 8.92

###

Record form. Attribute: log10 Kd. Fill in for each entry.
# EXPERIMENTAL_TARGET: HLA-A*02:03
# TEST_DETAILS: IEDB peptide-MHC binding, purified MHC/competitive/radioactivity; filed as Kd, often an IC50 or EC50 that approximates it; bounds were set here for any values at or beyond the usual limits of such assays
# TEST_PARAMETERS: source organism: Vaccinia virus WR
Plainly stated, the numbers are log10 of Kd given in nM.

Query: Give log10 Kd for the following sequence: "IIYSKAGNIL"
Reply: 2.04

Query: Give log10 Kd for the following sequence: "KTANNYETI"
Reply: 1.59

Query: Give log10 Kd for the following sequence: "YAAEMVEYL"
Reply: 0.32

Query: Give log10 Kd for the following sequence: "ITRLEVIGL"
Reply: 2.33

Query: Give log10 Kd for the following sequence: "AARLKRSAT"
Reply: 4.02

Query: Give log10 Kd for the following sequence: "GLSSGFYFEI"
Reply: 2.89

Query: Give log10 Kd for the following sequence: "NVFISPASI"
Reply: -0.14

Query: Give log10 Kd for the following sequence: "NTVGMSIVCI"
Reply: 3.19

Query: Give log10 Kd for the following sequence: "KTRLFRSPQV"
Reply: 2.99

Query: Give log10 Kd for the following sequence: "RIITILQDI"
Reply: 0.75

Query: Give log10 Kd for the following sequence: "NTDHPLSINV"
Reply: 2.77

Query: Give log10 Kd for the following sequence: "CLLTDTIESA"
Reply: 2.01

###

# EXPERIMENTAL_TARGET: HLA-A*02:06
# TEST_DETAILS: IEDB peptide-MHC binding, purified MHC/competitive/fluorescence; filed as Kd, often an IC50 or EC50 that approximates it; bounds were set here for any values at or beyond the usual limits of such assays
# TEST_PARAMETERS: source organism: Pseudomonas aeruginosa UCBPP-PA14
QUANTITY_KIND: pKd
API: returns pKd as number; meaning -log10 of concentration in mol/L.

Query: Give pKd for the following sequence: "FLDDASNSA"
Reply: 8.17

###

# EXPERIMENTAL_TARGET: HLA-B*07:02
# TEST_DETAILS: IEDB peptide-MHC binding, purified MHC/direct/fluorescence; filed as Kd, often an IC50 or EC50 that approximates it; bounds were set here for any values at or beyond the usual limits of such assays
# TEST_PARAMETERS: source organism: Comamonas sediminis
QUANTITY_KIND: Kd

Query: Give Kd for the following sequence: "KSLGIDQIW"
Reply: ≥ 20 µM

###

# EXPERIMENTAL_TARGET: HLA-B*08:01
# TEST_DETAILS: IEDB peptide-MHC binding, purified MHC/direct/fluorescence; filed as Kd, often an IC50 or EC50 that approximates it; bounds were set here for any values at or beyond the usual limits of such assays
# TEST_PARAMETERS: source organism: Vibrio parahaemolyticus
QUANTITY_KIND: Kd (nM)
The reply should be a number in nM, with the unit left off.

Query: Give Kd for the following sequence: "YPKCDLVEL"
Reply: 540

###

Record form. Attribute: Kd. Fill in for each entry.
# EXPERIMENTAL_TARGET: HLA-B*35:01
# TEST_DETAILS: IEDB peptide-MHC binding, purified MHC/competitive/radioactivity; filed as Kd, often an IC50 or EC50 that approximates it; bounds were set here for any values at or beyond the usual limits of such assays
# TEST_PARAMETERS: source organism: Triticum aestivum
The reply should be a number in µM, with the unit left off.

Query: Write down measured Kd (HLA-B*35:01) for this sequence. "QPFPSQQPY"
Reply: 0.0668

Query: Write down measured Kd (HLA-B*35:01) for this sequence. "VPLVQQQQFL"
Reply: 16.1

###

# EXPERIMENTAL_TARGET: HLA-A*01:01
# TEST_DETAILS: IEDB peptide-MHC binding, purified MHC/competitive/fluorescence; filed as Kd, often an IC50 or EC50 that approximates it; bounds were set here for any values at or beyond the usual limits of such assays
# TEST_PARAMETERS: source organism: Human immunodeficiency virus 1
QUANTITY_KIND: Kd (nM)
The reply should be a number in nM, with the unit left off.

Query: Give Kd for the following sequence: "KSLFNTIAVLY"
Reply: 2130

###

# EXPERIMENTAL_TARGET: HLA-A*26:01
# TEST_DETAILS: IEDB peptide-MHC binding, purified MHC/competitive/radioactivity; filed as Kd, often an IC50 or EC50 that approximates it; bounds were set here for any values at or beyond the usual limits of such assays
# TEST_PARAMETERS: source organism: Variola virus
QUANTITY_KIND: Kd

Query: Write down measured Kd (HLA-A*26:01) for this sequence. "RYYDGNIYDL"
Reply: ≥ 69.7 µM

###

# EXPERIMENTAL_TARGET: HLA-B*51:01
# TEST_DETAILS: IEDB peptide-MHC binding, purified MHC/competitive/radioactivity; filed as Kd, often an IC50 or EC50 that approximates it; bounds were set here for any values at or beyond the usual limits of such assays
# TEST_PARAMETERS: source organism: Mammarenavirus guanaritoense
QUANTITY_KIND: pKd
API: returns pKd as number; meaning -log10 of concentration in mol/L.

Query: Give pKd for the following sequence: "TPNNFSSIV"
Reply: 5.90

###

# EXPERIMENTAL_TARGET: HLA-B*27:05
# TEST_DETAILS: IEDB peptide-MHC binding, purified MHC/direct/fluorescence; filed as Kd, often an IC50 or EC50 that approximates it; bounds were set here for any values at or beyond the usual limits of such assays
# TEST_PARAMETERS: source organism: Camelpox virus M-96
Record form. Attribute: Kd. Fill in for each entry.

Query: Give Kd for the following sequence: "LEYGANYFL"
Reply: ≥ 20 µM

Query: Give Kd for the following sequence: "NTDAFSREY"
Reply: ≥ 20 µM

###

# EXPERIMENTAL_TARGET: HLA-B*44:02
# TEST_DETAILS: IEDB peptide-MHC binding, purified MHC/direct/fluorescence; filed as Kd, often an IC50 or EC50 that approximates it; bounds were set here for any values at or beyond the usual limits of such assays
# TEST_PARAMETERS: source organism: Campylobacter jejuni
pKd: −log10 of the molar value.
QUANTITY_KIND: pKd

Query: Give pKd for the following sequence: "SFGAGTLAK"
Reply: ≤ 4.70

###

# EXPERIMENTAL_TARGET: HLA-B*39:01
# TEST_DETAILS: IEDB peptide-MHC binding, purified MHC/direct/fluorescence; filed as Kd, often an IC50 or EC50 that approximates it; bounds were set here for any values at or beyond the usual limits of such assays
# TEST_PARAMETERS: source organism: Orthomarburgvirus marburgense
QUANTITY_KIND: Kd

Query: Give Kd for the following sequence: "FLMRNAIQY"
Reply: ≥ 20 µM

###

# EXPERIMENTAL_TARGET: HLA-A*30:01
# TEST_DETAILS: IEDB peptide-MHC binding, purified MHC/direct/fluorescence; filed as Kd, often an IC50 or EC50 that approximates it; bounds were set here for any values at or beyond the usual limits of such assays
# TEST_PARAMETERS: source organism: Campylobacter jejuni
QUANTITY_KIND: Kd (nM)
The reply should be a number in nM, with the unit left off.

Query: Write down measured Kd (HLA-A*30:01) for this sequence. "SFGAGTLAK"
Reply: 18.6

Reference source for all entries: the Immune Epitope Database (IEDB)
